The measurements presented in this section are drawn from PubChem BioAssay AID1159580.

test: chemical genetic growth profiling, strain panel (AID 1159580);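 also: tested at 20 µM; growth read once vehicle control cultures reached saturation at 30 °C; lower values mean less growth of the strain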; conditions: S. cerevisiae deletion strains, growth OD, locus YOR270C, strain vph1, stronger effect = lower value
Among all 5,500 compounds or so, about 2,000 (36%) were called active. Another 18% or so got no clear call; they are omitted. Some of the results follow.
Just a reminder that ties go to Not met: only normalized growth strictly below 0.8 counts as Met.

> print(dat)
                                    molecule    class
 1  CC1(C)C=Cc2c(cc3occ(-c4ccc5c(c4)OCO5)c(=O)c3c2O)O1  Not met
 2       Cc1cc(C)nc(NS(=O)(=O)c2ccc(N)cc2)n1  Not met
 3                COc1cc2ccc(=O)oc2c(OC)c1OC  Not met
 4  COc1cc2c(cc1-c1coc3c4c(c(OC)cc3c1=O)OC(C)(C)C=C4)OCO2  Not met
 5              COc1ccc2ccc(=O)oc2c1CC=C(C)C      Met
 6  CC(=O)OCC(=O)[C@@]1(O)CCC2C3CCC4=CC(=O)CC[C@]4(C)[C@@]3(F)[C@@H](O)C[C@@]21C (stereo partly drawn)  Not met
 7  O=c1[nH]c2ccccc2n1C1CCN(CCCC(c2ccc(F)cc2)c2ccc(F)cc2)CC1      Met
 8       O=C1c2ccccc2C(=O)c2c(O)c(O)cc(O)c21      Met
 9  Cn1nnnc1SCC1=C(C(=O)O)N2C(=O)C(NC(=O)C(OC=O)c3ccccc3)C2SC1 (stereo not drawn)  Not met
10    O=C1c2ccc(O)c(O)c2C(=O)c2c(O)ccc(O)c21      Met
11  O=C(CCCN1CC=C(n2c(=O)[nH]c3ccccc32)CC1)c1ccc(F)cc1  Not met
12  Fc1ccc(C(c2ccc(F)cc2)N2CCN(C/C=C/c3ccccc3)CC2)cc1      Met
13            O=C1c2ccccc2C(=O)c2c1ccc(O)c2O      Met
14                  COc1cc(O)c(C(=O)O)c(O)c1  Not met
15  C[N+]1(C)CCc2cc3c(cc2[C@H]1C1OC(=O)c2c1ccc1c2OCO1)OCO3 (stereo partly drawn)  Not met
16  COC(=O)C[C@H]1C(C)(C)[C@@H](OC(C)=O)[C@@H]2CC3C4CC(=O)O[C@@H](c5ccoc5)[C@]4(C)CCC3[C@@]1(C)C2=O (stereo partly drawn)  Not met
17             COc1ccc2c(=O)c(CC(=O)O)coc2c1  Not met
